System: Myzus persicae (green peach aphid)
assay_remarks: Example B9: Myzus persicae on pepper or cabbage plants, feeding/residual contact activity
Type: in vivo
condition: 144 h, pepper [P] plants sprayed, 6 days, read-out: activity against Myzus persicae (mortality)
readout_type: mortality at 200 ppm

Consider the following illustrative entries.
CON1CCC2(CC1)C(=O)C(c1c(C)cc(C)cc1C)C(=O)N2N(C)C (stereo not shown) [A1]    ≥ 80%
CCOC(=O)OC1=C(c2c(C)cc(C)cc2C)C(=O)N(N(C)C)C12CCN(OC)CC2 [A2]    ≥ 80%

Measured mortality at 200 ppm, CCOC(=O)OC1=C(c2c(C)cc(Cl)cc2C)C(=O)N(N(C)C)C12CCN(OC)CC2 [A4] : ≥ 80%

Entry CON1CCC2(CC1)C(O)=C(c1cc(C)ccc1C)C(=O)N2N(C)C [A5] , mortality at 200 ppm reported as ≥ 80%

###

Listed below: mortality at 400 ppm values for each entry.
Tested on: Tetranychus urticae (two-spotted spider mite)
assay_remarks: Example B4: Tetranychus urticae, mixed population, feeding/residual contact activity, preventive
condition: foliar, 192 h, read-out: activity (egg, larval and adult mortality)

Known results for compounds:
CON1CCC2(CC1)C(O)=C(c1c(C)cc(C)cc1C)C(=O)N2N1CCOCC1    > 80%
CCOC(=O)OC1=C(c2c(C)cc(C)cc2C)C(=O)N(N(C)C)C12CCN(OC)CC2    > 80%
CCOC(=O)OC1=C(c2c(C)cc(Cl)cc2C)C(=O)N(N2CCOCC2)C12CCN(OC)CC2    > 80%
CCOC(=O)OC1=C(c2c(C)cc(Cl)cc2C)C(=O)N(N(C)C)C12CCN(OC)CC2    > 80%
CON1CCC2(CC1)C(=O)C(c1c(C)cc(C)cc1C)C(=O)N2N(C)C (stereo not shown)    > 80%
CON1CCC2(CC1)C(O)=C(c1c(C)cc(Cl)cc1C)C(=O)N2N1CCOCC1    > 80%

Proceeding to the next compound to report its mortality at 400 ppm.
mortality at 400 ppm of CON1CCC2(CC1)C(O)=C(c1c(C)cc(Cl)cc1C)C(=O)N2N(C)C , assay on Tetranychus urticae (two-spotted spider mite), is > 80%
